Listing of recorded p-ATR protein by entry.
# System: mESC
# method: Western blot protein expression (densitometry)
# Format: cell-based, mouse
# assay.context: mESC 24 h; Fig 4H; Eto, Dox 1, B02, EST

Consider the worked cases shown below.
>>> result("COc1cc([C@@H]2c3cc4c(cc3[C@@H](O[C@@H]3O[C@@H]5CO[C@@H](C)O[C@H]5[C@H](O)[C@H]3O)[C@H]3COC(=O)[C@H]23)OCO4)cc(OC)c1O [Eto, etoposide]")
"1.6 Fold of mESC"
>>> result("Nc1ccccc1NC(=O)c1ccc(CNC(=O)OCc2cccnc2)cc1")
"2.9 Fold of mESC"
>>> result("O=c1c2ccccc2nc(/C=C/c2cccnc2)n1Cc1ccccc1")
"2.7 Fold of mESC"

Field: next compound
State its p-ATR protein on mESC: `COc1cccc2c1C(=O)c1c(O)c3c(c(O)c1C2=O)C[C@@](O)(C(=O)CO)C[C@@H]3O[C@H]1C[C@H](N)[C@H](O)[C@H](C)O1`
1.9 Fold of mESC
